Provenance of the data: the DeepSol protein solubility set

- assay comment: soluble on expression in E. coli; label from the status in PepcDB or PDB records
property label: soluble on expression in E. coli

INSERT INTO assay_data (chain_sequence, value_observed) VALUES
  ('MGSDKIHHHHHHMAPRIKTRDRIAQASLELFNAQGERSVTTNHIATHLGISPGNLYYHYPNKQAIIAELFAEYESHVESFLRLPEGRGLTVDDKTFYLEALLAAMWRYRFLHRDLEHLLESDPELAARYRAFAQRCLVNAKAIYRGFTEAGILRMNETQLEALTLNAWIILTSWVRFLCTTLDLDGDLSEAQLRRGIYQVLALESGHIEAQAQDAVDGISERLYVPL', 'not soluble'),
  ('GKPFSYGASFNLTFARNRYLRYPDSPNTVEWRKRTGRSVDASVVWVAEGLFRSEEEIDNSAWYGTRPNVGDIKYKDLNGDGKIDEDDRTRVGRGNRPELTYGLNLNCAWNGFDLSAQFTGGALFDVSLTGTYYNGYDDNTVWTQAFKEGANSPLYLVQNAYTTENPNGTFPRLTLGNQGHGGDNGLASTFWLRNGRYLRLKSAQLGYTFPKKWMSPVGIQNLRIYVEGSNLFTISGLPDGIDPESPGVNNGYYPQQRTIMGGITLTF', 'not soluble');
